Reported melting point by item:

# molecule, melting point
measured = [
    ("COC(=O)c1ccccc1C(=O)NNC(=S)Nc1ccccc1", "140 to 142 °C"),
]

Next, consider the following molecule.
-- ask What value of melting point has been reported for the following molecule? CC(C)(C)NC(=O)NC(C)(C)C
-- reply 246 °C

====

readout-kind: melting point

// known answers, use as guide
# compound, readout-kind, observed-value
data = [
    ("CC(C)CC(C#N)(C#N)Cc1ccc(Cl)cc1", "melting point", "73.2 °C"),
    ("CC(=O)COc1ccc(CC2SC(=O)NC2=O)cc1 (stereo not given)", "melting point", "158 to 159 °C"),
    ("COc1ccc(Cc2ccc(NC3=NCCN3)cc2)s1", "melting point", "122 to 123 °C"),
    ("Cc1ccc2c(=O)nc(-c3ccccn3)sc2c1", "melting point", "225 °C"),
    ("COC(C)(C(=S)N(C)C)c1ccccn1 (stereo not given)", "melting point", "67.8 to 70 °C"),
    ("CCOc1ccc(Oc2ccc(OCc3cc(F)ccc3F)cc2)c(N)c1", "melting point", "72 to 73.5 °C"),
]

-- ask What value of melting point has been reported for the following compound? COc1ccc2cc(CNCc3ccccc3)ccc2c1
-- reply 45 to 53 °C

-- ask What value of melting point has been reported for the following compound? CC(=O)Nc1c(C(=O)c2ccccn2)[nH]c2cc(Cl)ccc12
-- reply 211 to 212 °C

-- ask What value of melting point has been reported for the following compound? O=S(=O)(Nc1c(F)c(F)nc(F)c1F)C(F)(F)F
-- reply 69 to 70 °C

-- ask What value of melting point has been reported for the following compound? N#Cc1nn(-c2c(Cl)cc(C(F)(F)F)cc2Cl)c(N)c1-c1ccc2c(c1)OCO2
-- reply 222 °C

All figures here come from a melting point compilation (Tetko et al.; mined from patent text by program, amines drawn as free bases though some values may be those of a salt).
